Answer each item with its documented Dmax.
# Target under test: BRAF G469A (Homo sapiens, UniProt P15056, G469A)
# Construct: Horizon Discovery (HCT-116 BRAF−/− cells); host or cells: HCT-116 BRAF−/− cells, clone 34, lentiviral transduction
# Sequence (P15056 whole entry G469A): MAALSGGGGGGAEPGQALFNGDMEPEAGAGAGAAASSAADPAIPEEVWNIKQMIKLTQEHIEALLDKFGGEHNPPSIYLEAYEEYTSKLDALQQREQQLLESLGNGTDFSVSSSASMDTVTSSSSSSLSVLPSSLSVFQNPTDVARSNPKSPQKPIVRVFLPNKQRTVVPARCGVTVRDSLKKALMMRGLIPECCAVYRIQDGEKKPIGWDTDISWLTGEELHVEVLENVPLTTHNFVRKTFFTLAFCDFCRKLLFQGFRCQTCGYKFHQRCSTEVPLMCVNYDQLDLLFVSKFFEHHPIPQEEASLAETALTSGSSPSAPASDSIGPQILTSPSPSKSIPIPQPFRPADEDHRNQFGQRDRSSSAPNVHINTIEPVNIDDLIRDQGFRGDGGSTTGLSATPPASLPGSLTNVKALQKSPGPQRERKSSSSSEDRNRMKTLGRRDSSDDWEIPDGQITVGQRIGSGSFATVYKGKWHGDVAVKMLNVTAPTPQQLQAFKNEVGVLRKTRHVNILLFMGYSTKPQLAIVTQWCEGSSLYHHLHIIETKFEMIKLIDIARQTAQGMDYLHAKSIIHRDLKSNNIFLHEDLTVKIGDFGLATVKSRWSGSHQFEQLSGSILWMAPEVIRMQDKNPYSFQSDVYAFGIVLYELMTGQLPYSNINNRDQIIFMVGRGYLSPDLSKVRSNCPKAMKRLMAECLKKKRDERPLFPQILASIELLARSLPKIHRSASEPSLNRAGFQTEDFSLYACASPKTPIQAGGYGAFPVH
# Assay summary: BRAF HiBiT degradation assay, C-terminal HiBiT-tagged BRAF G469A overexpressed in HCT-116 BRAF−/− cells (clone 34), Nano-Glo HiBiT Lytic assay
# Format: cell-based
# Details: HCT-116; Class 2; BRAF G469A; percentage protein degraded at maximal compound effect relative to DMSO

So what's the measured Dmax for this one? CCN(C)S(=O)(=O)Nc1cccc(-c2nc(C(C)(C)C)sc2-c2ccnc(Nc3ccc(N4CCN(C(=O)C5CCN(c6ccc(C7CCC(=O)NC7=O)cc6)CC5)CC4)cn3)n2)c1F (racemic) 30 to 70%

Cool, now CCCS(=O)(=O)Nc1cccc(-c2nc(C(C)(C)C)sc2-c2ccnc(Nc3ccc(C4CCN(C(=O)[C@@H]5CCN(c6ccc(C7CCC(=O)NC7=O)cn6)C5)CC4)cc3)n2)c1F (mixture of isomers) < 30%

Repeat with CCCS(=O)(=O)Nc1cccc(-c2nc(C(C)(C)C)sc2-c2ccnc(Nc3cccc(OC4CCN(CC[C@@H]5CCN(c6ccc(C7CCC(=O)NC7=O)cn6)C5)CC4)c3)n2)c1F (mixture of isomers) < 30%

Likewise for CCCS(=O)(=O)Nc1cccc(-c2nc(C3CCN(C(=O)C4CCN(C(=O)C5CCN(c6ccc(C7CCC(=O)NC7=O)cn6)CC5)CC4)CC3)sc2-c2ccncc2)c1F (racemic) ? 30 to 70%

Query CCCS(=O)(=O)Nc1cccc(-c2cn(-c3ccc(N4CCN(CC5CCN(c6ccc([C@H]7CCC(=O)NC7=O)cc6)CC5)CC4)cc3)nc2-c2ccncc2)c1F next 30 to 70%

And what about the compound CCCS(=O)(=O)Nc1cccc(-c2nc(C(C)(C)C)sc2-c2ccnc(NC3CC4(C3)CN(CC3CCN(c5ccc(C(=O)NC6CCC(=O)NC6=O)cc5)CC3)C4)n2)c1F (racemic) ? < 30%

What do you have for CCCS(=O)(=O)Nc1cccc(-c2nc(C(C)(C)C)sc2-c2ccnc(Nc3cnn(CC4CCN(C(=O)C[C@H]5CCN(c6ccc(C7CCC(=O)NC7=O)cc6)C5)CC4)c3)n2)c1F (mixture of isomers) ? < 30%

Next compound up: CCCS(=O)(=O)Nc1cccc(-c2nc(C(C)(C)C)sc2-c2ccnc(Nc3cnn(C4CCN(C(=O)[C@H]5CC[C@H](Oc6ccc(C7CCC(=O)NC7=O)cc6)CC5)CC4)c3)n2)c1F (mixture of isomers) < 30%

CCCS(=O)(=O)Nc1cccc(-c2nc(C3CCN(C(=O)C4CCN(CC5CCN(c6ccc(C7CCC(=O)NC7=O)cn6)CC5)CC4)CC3)sc2-c2ccncn2)c1F (racemic) , same question. 30 to 70%

And what about the compound CCCS(=O)(=O)Nc1cccc(-c2nc(C(C)(C)C)sc2-c2ccnc(Nc3ccc(N4CCN(CC5CCN(c6ccc(C7CCC(=O)NC7=O)cn6)CC5)CC4)c(F)c3)n2)c1F (racemic) ? 30 to 70%
